Test system: Plasmodium falciparum
Assay protocol: GSK_TCMDC: Inhibition of Plasmodium falciparum Dd2 in whole red blood cells, using parasite LDH activity as an index of growth. Test compounds present at 2uM
Type: functional
Inhibition overview
State just the number; it will be interpreted in %.

Example cases with answers are listed next.
CNC(=O)c1nc(-c2ccccc2)[nH]c1NC(C)=O ... 0
CC1(C)CC(NCCCCCCCOc2ccc(OCc3ccccc3)cc2)CC(C)(C)N1.Cl ... 73
COc1cc(CNC[C@@H](O)[C@H](Cc2ccccc2)NC(=O)c2cc(C3CCCC3)cc(N3CCCCS3(=O)=O)c2)cc(OC)c1.Cl ... 96
CC[C@H]1CN(Cc2ccccc2Br)CC[C@H]1CCCc1ccnc2ccc(O)cc12 ... 2
Cc1ccc2c(OCCN3CCC(Cc4ccc5c(c4)NC(=O)CO5)CC3)cc(F)cc2n1.Cl ... 21

In plain terms, CCCCCCc1ncc(-c2cc3cc(O)c(-c4ccccc4)cc3oc2=O)s1 has a documented Inhibition of 63

In plain terms, O=C(/C=C/c1ccc(Cl)c(Cl)c1)N1CCC(CN2CCC(c3nc4ccccc4n3CCCO)CC2)CC1 has a documented Inhibition of 0
